The origin of these recorded values is patent US20170355774A1.

Quick list: t½ per entry.
# measurementTarget: T1, hGITR.mFc (human)
# T1 construct: soluble dimeric construct with mouse Fc; also called dimeric human GITR
# T1 chain: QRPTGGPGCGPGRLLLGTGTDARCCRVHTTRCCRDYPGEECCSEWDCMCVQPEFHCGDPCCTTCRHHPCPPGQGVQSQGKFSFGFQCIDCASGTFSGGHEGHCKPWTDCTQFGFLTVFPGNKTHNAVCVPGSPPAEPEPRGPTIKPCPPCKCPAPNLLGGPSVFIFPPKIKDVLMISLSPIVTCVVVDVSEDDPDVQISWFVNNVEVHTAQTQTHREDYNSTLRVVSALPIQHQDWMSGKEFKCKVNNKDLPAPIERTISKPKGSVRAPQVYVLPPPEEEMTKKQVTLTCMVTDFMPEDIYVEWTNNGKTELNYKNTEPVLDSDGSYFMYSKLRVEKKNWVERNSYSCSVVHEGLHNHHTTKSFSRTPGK
# assayInfo: SPR 37C, mAb capture
measure: t½ (h)

- binder: "H4H14525P (antibody, human IgG4, V domains shown, human IgG4 (H4H)) VH: QVQLVESGGGVVQPGRSLRLSCAASGFTFSSYGMHWVRQAPGKGLEWVAVIWYVGSNKYYGESVKGRFTISRDNSKNTLYLQMNSLRDEDTAIYYCARGGQLGSFYYYGMDVWGQGTTVTVSS VL: DIQMTQSPSSLSASVGDRVTITCRASQGIRNDLGWYQQKPGKAPKRLIYDVSSLQSGVPSRFSGSGSGTEFTLTISSLQPEDLATYYCLQHNSYPWTFGQGTKVEIK"
  readoutNumber: 0.57
- binder: "H4H14530P (antibody, human IgG4, V domains shown, human IgG4 (H4H)) VH: QLQLQESGPGLVKPSETLSLTCTVSGGSISSTNHYWGWIRQPPGKGLEWIGNVYYIGNAYYNPSLKTGVTFSVDTSKNQFSLNLRSVTAADTAMYYCARLSNWNFLDLWGQGTLVTVSS VL: EIVMTQSPATLSVSPGERATLSCRASQSISSNLAWYQQKPGQAPRLLIYGASTRATGIPARFSGSGSGTEFTLTISSLQSEDFAVYYCQQFNNWLSFGGGTKVEIK"
  readoutNumber: 1.04
- binder: "H1H14493P (antibody, human IgG1, V domains shown, human IgG1 (H1H)) VH: QVQLVESGGGVVQPGRSLRLSCAASGFNFRSYGMHWVRQAPGKGLEWVAVIWYDGSNKYYADSVKGRFTISRDSSRDTLFLQMNSLRAGDTAVYYCARGGMLGRDYYYGMDVWGQGTTVTVSS VL: DIQMTQSPSSLSASVGDRVTITCRASQGIRNDLGWYQQKPGKAPKRLIYAASSLQSGVPSRFSGSGSGTEFTLTISSLQPEDFATYYCLQHNSYPNTFGQGTKLEIK"
  readoutNumber: 1.01
- binder: "H1H14503P (antibody, human IgG1, V domains shown, human IgG1 (H1H)) VH: QVQLVESGGGVVQPGRSLRLSCEASGFTFSNYGFHWVRQAPGKGLDWVAVIWYAGSNKFYVDSVQGRFTISRDNSKQILFLQMNSLRAEDSAVYYCVRGGILGIDYYSGMDVWGQGTTVTVSS VL: AIQMTQSPSSLSASVGDRVTITCRASQDIRNDLGWYQQRPGKAPKFLIYSTSSLQSGVPSRFSGSGSGTDFILTISSLQPEDFATYYCLQSHNYPWTFGHGTKVEIK"
  readoutNumber: 1.25
- binder: "H4H14470P (antibody, human IgG4, V domains shown, human IgG4 (H4H)) VH: QVQLVESGGGVVQPGRSLRLSCAASGFTVRNYGMHWVRQAPGKGLEWVAVIWYDGSNKYYADSVKGRFTISRDNSKNTLFLQMNSLRAEDTAVYYCARGGELVRGDYYYGMDVWGQGTTVTVSS VL: DIQMTQSPSSLSASVGDRVTITCRASQGIRNDLGWYQQKPGKAPKRLIYGASSLQSGVPSRFSGSGSGTEFTLTISSLQPEDFATYYCLQHNSYPYTFGQGTKLEIK"
  readoutNumber: 0.185
